# System tested: T1, HER2-ECD-Fc (human, UniProt P04626 23-652)
# T1 construct: extracellular domain; Produced in FreeStyle 293F cells; also called HER2-ECD Fc fusion protein
# Assay explanation: ELISA on HER2-ECD-Fc; antibody at 5 × 10^-3 µg/mL
Readout type: absorbance
Answer field: number only, no words.

Prompt: GET /values?readout=absorbance&item= 24D3 (antibody, V domains shown) VH: EVKLVESGGGLVKPGGSLKLSCAASGFTFSSCAMSWVRQTPEKRLEWVATISGGGSYTYYPDSVKGRFTISRDNAKNTLYLQMSSLRSEDTAMYYCARHGGYESWFPYWGQGTLVTVSA VL: DIVMTQSPLSLPVSLGDQASISCRSSQSLVHSNGNTYLHWYLQKPGQSPKLLIYKVSNRFSGVPDRFSGSGSGTDFTLKISRVEAEDLGVYFCSQSTHVPPWTFGGGTKLEIK
Completion: 1.13
